Just for reference, ChEMBL document CHEMBL1158481 is where these values come from.

# tgt: P2X purinoceptor 3 (Rattus norvegicus)
# protocol: Agonist activity at rat P2X3 receptor expressed in HEK cells assessed as induction of inward current at 100 uM by patch clamp method relative to alpha, beta-meATP
# Format: functional, cell-based
# study_conditions: HEK293
Activity calls are given as the source filed them. The rule behind the calls is not given here.
measured_metric: Activity

1) Nc1nc(Cl)nc2c1ncn2CCCCOP(=O)(O)OP(=O)(O)O | Active
2) Nc1nc(I)nc2c1ncn2CCCCOP(=O)(O)OP(=O)(O)OP(=O)(O)O | 60%
3) Nc1nc(OCCc2ccccc2)nc2c1ncn2CCCCOP(=O)(O)O | inactive
4) Nc1nc(N)c2ncn(CCCCOP(=O)(O)OP(=O)(O)O)c2n1 | Active
5) Nc1ncnc2c1ncn2CCCCOP(=O)(O)OP(=O)(O)OP(=O)(O)O | 36%

Form: item Nc1nc(I)nc2c1ncn2CCCCOP(=O)(O)O ; test system P2X purinoceptor 3 (Rattus norvegicus); Activity: inactive

Reported P2X purinoceptor 3 (Rattus norvegicus) Activity for item Nc1ncnc2c1ncn2CCCCOP(=O)(O)O was inactive

Kindly note: P2X purinoceptor 3 (Rattus norvegicus), Nc1nc(Cl)nc2c1ncn2CCCCOP(=O)(O)OP(=O)(O)OP(=O)(O)O , Activity value reported: 30%

Readout Activity for Nc1nc(N)c2ncn(CCCCOP(=O)(O)O)c2n1 , test system P2X purinoceptor 3 (Rattus norvegicus), was inactive

Result for Nc1nc(OCCc2ccccc2)nc2c1ncn2CCCCOP(=O)(O)OP(=O)(O)O , tested on P2X purinoceptor 3 (Rattus norvegicus), Activity: Active

Activity of Nc1ncnc2c1ncn2CCCCOP(=O)(O)OP(=O)(O)O , assay on P2X purinoceptor 3 (Rattus norvegicus), is 32%

Activity on P2X purinoceptor 3 (Rattus norvegicus) for Nc1nc(N)c2ncn(CCCCOP(=O)(O)OP(=O)(O)OP(=O)(O)O)c2n1 is 25%

----------
# tgt: P2X purinoceptor 3 (Rattus norvegicus)
# protocol: Activity at rat P2X3 receptor expressed in HEK cells assessed as induction of inward current at 100 uM by patch clamp method
# Format: cell-based
# study_conditions: HEK293
Activity calls are given as the source filed them. The rule behind the calls is not given here.
Hi there, use one of these labels in your reply, thanks! 1 = active, -1 = inactive

Please review the following examples before continuing.
1. Nc1nc(N)c2ncn(CCCCOP(=O)(O)OP(=O)(O)OP(=O)(O)O)c2n1 | 1
2. CCCCC#Cc1nc(N)c2ncn(CCCCOP(=O)(O)OP(=O)(O)OP(=O)(O)O)c2n1 | 1
3. CCCCC#Cc1nc(N)c2ncn(CCCCOP(=O)(O)O)c2n1 | -1
4. Nc1nc(I)nc2c1ncn2CCCCOP(=O)(O)OP(=O)(O)OP(=O)(O)O | 1
5. Nc1nc(N)c2ncn(CCCCOP(=O)(O)OP(=O)(O)O)c2n1 | 1
6. Nc1nc(I)nc2c1ncn2CCCCOP(=O)(O)O | -1
7. Nc1ncnc2c1ncn2[C@@H]1O[C@H](COP(=O)(O)CP(=O)(O)OP(=O)(O)O)[C@@H](O)[C@H]1O (single isomer, unassigned) | 1

Could you kindly confirm the outcome this assay logged for Nc1nc(N)c2ncn(CCCCOP(=O)(O)O)c2n1 ?
-1

----------
# tgt: P2X purinoceptor 3 (Rattus norvegicus) (UniProt P49654)
# Sequence (whole entry): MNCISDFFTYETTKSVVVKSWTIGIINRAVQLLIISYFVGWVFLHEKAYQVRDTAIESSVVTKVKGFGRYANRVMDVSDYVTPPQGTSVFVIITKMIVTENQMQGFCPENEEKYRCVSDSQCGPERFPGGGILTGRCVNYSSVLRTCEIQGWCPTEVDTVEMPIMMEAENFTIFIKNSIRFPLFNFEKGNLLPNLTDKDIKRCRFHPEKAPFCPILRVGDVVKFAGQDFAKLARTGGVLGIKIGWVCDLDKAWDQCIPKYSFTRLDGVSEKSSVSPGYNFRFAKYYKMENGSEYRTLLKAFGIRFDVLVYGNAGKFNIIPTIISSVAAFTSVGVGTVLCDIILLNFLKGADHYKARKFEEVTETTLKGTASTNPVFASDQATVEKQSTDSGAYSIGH
# protocol: Agonist activity at rat P2X3 receptor expressed in HEK cells assessed as induction of inward current at 100 uM by patch clamp method relative to alpha, beta-meATP
# Type: functional, cell-based
# study_conditions: HEK293
Calls of active or inactive are those of the source. The calls are words filed in the database; no cut-off is given here.
measured_metric: Activity

1) CCCCC#Cc1nc(N)c2ncn(CCCCOP(=O)(O)OP(=O)(O)OP(=O)(O)O)c2n1 | 38%
2) Nc1nc(Cl)nc2c1ncn2CCCCOP(=O)(O)O | inactive
3) CCCCC#Cc1nc(N)c2ncn(CCCCOP(=O)(O)O)c2n1 | inactive
